Biological target: T1, rat PrRP receptor in RC-4B/C cells (rat, UniProt Q64121 1-370)
T1 construct: whole, on cells; endogenous receptor of RC-4B/C cells (ATCC); also called rat receptor; GPR10 receptor expressed in rat hypophyseal cells
T1 sequence (looked up): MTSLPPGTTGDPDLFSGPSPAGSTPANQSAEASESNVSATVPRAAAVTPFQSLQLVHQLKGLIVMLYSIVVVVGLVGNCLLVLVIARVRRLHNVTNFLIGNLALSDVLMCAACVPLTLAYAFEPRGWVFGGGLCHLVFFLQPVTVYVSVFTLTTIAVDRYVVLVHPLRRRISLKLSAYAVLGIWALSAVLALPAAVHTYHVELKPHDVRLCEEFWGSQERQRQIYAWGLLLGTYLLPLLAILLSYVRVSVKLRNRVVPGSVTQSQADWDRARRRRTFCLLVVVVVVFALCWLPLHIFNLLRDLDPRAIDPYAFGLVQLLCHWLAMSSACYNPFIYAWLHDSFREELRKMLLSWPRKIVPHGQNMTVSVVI
Assay: competition with 125I-rat PrRP31, RC-4B/C cells
Numbered stars: 1 amine (or outer) side, 2 acyl side, 3 side chain; on linkers, the order of the positions; unused ones are H or OH. Square brackets hold non-standard residues; d marks the D form. Side chains are listed from the residue outwards. Ends that are not written are not given here. * marks the point of attachment. Phe(F5) = N[C@@H](Cc1c(F)c(F)c(F)c(F)c1F)C(=O)O; γGlu = O=C(O)[C@H](CCC(=O)[*:2])N[*:1]; 1Nal = N[C@@H](Cc1cccc2ccccc12)C(=O)O; Palmitoyl = CCCCCCCCCCCCCCCC(=O)*; Myristoyl = CCCCCCCCCCCCCC(=O)*; PheCl2 = dichlorophenylalanine; Lauroyl = CCCCCCCCCCCC(=O)*; PheNO2 = nitrophenylalanine; Nle = CCCC[C@H](N)C(=O)O; Octanoyl = CCCCCCCC(=O)*; GABA = NCCCC(=O)O
reported_property: % of PrRP31 (%)

Past entries and their recorded results:
binder: Lauroyl-SRAHQHS[Nle]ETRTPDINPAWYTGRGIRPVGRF-NH2 [analog no. 6]
val: 1260
--
binder: SRAHQHS[Nle]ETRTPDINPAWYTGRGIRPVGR[Phe(F5)]-NH2 [analog no. 21]
val: 51
--
binder: Octanoyl-SRAHQHS[Nle]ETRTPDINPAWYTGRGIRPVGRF-NH2 [analog no. 4]
val: 503
--
binder: SRTHRHSMEIK([GABA-Palmitoyl])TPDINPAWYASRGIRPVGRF-NH2 [analog no. 53]
val: 190
--
binder: SRAHQHS[Nle]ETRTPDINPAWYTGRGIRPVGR[1Nal]-NH2 [analog no. 10]
val: 4.8

(a) SRTHRHSMEIK([γGlu-Palmitoyl])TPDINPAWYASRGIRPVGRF-NH2 (also called compound 52) [analog no. 52]
(b) SRAHQHS[Nle]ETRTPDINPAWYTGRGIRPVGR[PheCl2]-NH2 [analog no. 13]
(c) QHSMETRTPDINPAWYTGRGIRPVGRF-NH2 (shortened PrRP31 analog; also called 37 short) [analog no. 37]
(d) SRAHQHS[Nle]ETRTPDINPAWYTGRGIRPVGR[PheNO2]-NH2 [analog no. 16]
(e) Myristoyl-SRAHQHS[Nle]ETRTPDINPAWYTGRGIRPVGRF-NH2 [analog no. 7]
Please list these in order of increasing % of PrRP31. Thank you! Return value: ordered labels per request.
d, a, b, c, e

(1) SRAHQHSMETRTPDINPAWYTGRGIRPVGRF-NH2 (synthetic peptide) [Rat PrRP31]
(2) Palmitoyl-SRAHQHS[Nle]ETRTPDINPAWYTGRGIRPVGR[PheNO2]-NH2 [analog no. 18]
(3) SETHRHSMEIK([γGlu-Palmitoyl])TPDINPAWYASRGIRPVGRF-NH2 [analog no. 55]
(4) SETHRHSMEIKTPDINPAWYASRGIRPVGRF (K(N-POE(N-palm)) at residue 11; C-terminal amide) [analog no. 58]
(5) SHQRPADTHWYPRG[Nle]FPTIGRITARNGEVSR (scrambled peptide; also called 19 scram) [analog no. 19]
Please list these in order of increasing % of PrRP31. Thank you! Return value: ordered labels per request.
5, 1, 3, 4, 2
